System: Crimean-Congo hemorrhagic fever virus L polyprotein viral ovarian tumor (vOTU) protease domain
assay summary: CCHFV vOTU protease inhibitors, primary screen, biochemical, Pep-AMC substrate, fluorescence (AID 651958); further: 0% = vehicle wells with enzyme and 100% = no enzyme wells
measurement setup: at 11.5 µM, hits give high values
In all, about 370,000 compounds went through this assay and about 2,000 (0.54%) were called active. The full list was thinned out, with actives kept by preference.
test readout: inhibition (%)

CSCC(=O)N1CCCC(C(=O)c2cc(F)ccc2F)C1 (stereo not given); -7.31
O=C(O)Cc1csc(NC(=O)CSc2nnnn2-c2ccc(O)cc2)n1; -4.88
CCOC(=O)N(C)c1c(CC)nc2c(OCc3ccccc3C(=O)OC)cccn12; 15.9
O=C(NCc1ccccn1)C1CCN(S(=O)(=O)c2ccc(Br)cc2)CC1; -7.95
COc1cc(OC)cc(C(=O)NCCN2CCC3(CC2)C(=O)NCN3c2ccccc2)c1; -10.2
COc1ccc2c(c1)CCc1cn3ncc(C#N)c3nc1-2; -345
CC(C)(C)NC(=O)C(c1ccco1)N(Cc1ccc2c(c1)OCO2)C(=O)Cn1nnc2ccccc21 (stereo not given); 5.93
CCCNC(=O)c1ccc(N2CCC3(CC2)CC(c2ccc(Cl)cc2)=NO3)c([N+](=O)[O-])c1; 5.33
CCCn1c(N)c(C(=O)CSc2nnc(Cc3cccs3)n2C2CC2)c(=O)[nH]c1=O; -3.09
Cc1noc(/C=C/c2ccco2)c1S(=O)(=O)N1CCC(C(=O)Nc2ccc(Cl)cn2)CC1; 2.84

====

Tested on: Crimean-Congo hemorrhagic fever virus L polyprotein viral ovarian tumor (vOTU) protease domain
assay summary: CCHFV vOTU protease inhibitors, primary screen, biochemical, Pep-AMC substrate, fluorescence (AID 651958); further: 0% = vehicle wells with enzyme and 100% = no enzyme wells
measurement setup: at 11.5 µM, hits give high values
Out of some 370,000 compounds screened, about 2,000 (0.54%) were called active. For the sample, actives were picked, then their nearest neighbours and some compounds at random.
test readout: inhibition (%)

Cc1ccc(C23CC4CC(CC(C(=O)NCC(=O)O)(C4)C2)C3)cc1; 12.6
Oc1c(C=Nc2cccc3nsnc23)ccc2ccccc12; 86
CCc1nc2ccc(C(=O)Nc3ccc(OC)c(OC)c3)cn2c1N(C)C(=O)c1cccc(OC)c1; 7.94
CCCCOCCCNC(=O)C[C@@H]1C[C@@]2(C(=O)OCC)CCCC=C2N(CCC2=CCCCC2)C1=O; 15.7
CCCc1ccc(-c2c(C)sc(NC(=O)c3ccnn3C)c2C#N)cc1; 13
CCOc1ccc(CNC(=O)C2CC(=O)N(C3CCCC3)C2)cc1OC (stereo unspecified); 4.25
CC(C)c1ccc(O)c(CN2CCN(c3ccccc3)CC2)c1; -12.4
COc1cc(CN2CCCN(C)CC2)c([N+](=O)[O-])cc1OC; -3.03
CCNC(=S)N1CCN(c2ncccn2)CC1; 43.8
CCOc1ccc(C2C(C#N)=C(N)N(N(C)C)C3=C2C(=O)CCC3)cc1 (stereo unspecified); 16.2
O=C1C(Cl)=C(Oc2ccccc2)C(=O)c2ccccc21; 6.2
Cc1ccc(C2(C(F)(F)F)N=C3Sc4cc(C)cc(C)c4N3C(=O)N2)cc1 (stereo unspecified); -15.2
COC(=O)[C@]12C[C@H](CC(=O)NCc3ccccc3)C(=O)N(CCC3=CCCCC3)C1=C[C@H](C(C)(C)C)O[C@@H]2C; 24.8
CC(C)c1c(CN(C)C(C)Cc2ccccc2)n(C)n(-c2ccccc2)c1=O (stereo unspecified); 3.82
CSc1ccccc1NC(=O)CN(C)CC(=O)Nc1cccc(Br)c1; 0.92
CCCCCCCCN1C(=O)[C@@H](CC(=O)NCc2ccc(C)o2)C[C@@]2(C(=O)OC)C1=C[C@H](C(C)(C)C)O[C@@H]2C; 17.8
COc1cc2c(cc1OC)C(c1cccc([N+](=O)[O-])c1)=NCC2; 10.7
COc1ccc(NC(=O)CNC(=O)Cn2ccc3ccccc3c2=O)c(OC)c1; -6.81
Cc1ccc(NC(=S)N2CCN(c3ncccn3)CC2)cc1C; 2.37
COC(=O)[C@]12C[C@H](CC(=O)NCc3ccc(C)o3)C(=O)N(CCC3=CCCCC3)C1=C[C@H](C(C)(C)C)O[C@@H]2C; 29.6
CCNC(=S)N1CCN(S(=O)(=O)c2ccc(Cl)s2)CC1; 11.2

====

Test system: Crimean-Congo hemorrhagic fever virus L polyprotein viral ovarian tumor (vOTU) protease domain
assay summary: CCHFV vOTU protease inhibitors, primary screen, biochemical, Pep-AMC substrate, fluorescence (AID 651958); further: 0% = vehicle wells with enzyme and 100% = no enzyme wells
measurement setup: at 11.5 µM, hits give high values
Screen size: about 370,000 compounds; about 2,000 (0.54%) were called active. What follows is part of a selection rich in actives, with near analogues and random picks from the rest.
test readout: inhibition (%)

Cc1ccc(NS(=O)(=O)c2ccc3c(c2)n(C)c(=O)c(=O)n3C)c(C)c1; 9.52
Cn1c(=NC(=O)c2cnccn2)sc2ccccc21; 36.4
O=C(O)c1ccccc1/C=N/Nc1ccc(S(=O)(=O)Nc2ccc(Cl)cc2)cc1[N+](=O)[O-]; 31.2
O=C(Nc1cc(S(=O)(=O)Nc2ccc(Cl)cc2)ccc1O)c1ccc(F)cc1F; 1.4
O=[N+]([O-])c1cc(S(=O)(=O)Nc2cccc(Cl)c2)ccc1N=Nc1c(O)[nH]c2ccccc12; -13

====

Parameter: inhibition. Scope: all listed entries.
Test system: Crimean-Congo hemorrhagic fever virus L polyprotein viral ovarian tumor (vOTU) protease domain
assay summary: CCHFV vOTU protease inhibitors, primary screen, biochemical, Pep-AMC substrate, fluorescence (AID 651958); further: 0% = vehicle wells with enzyme and 100% = no enzyme wells
measurement setup: at 11.5 µM, hits give high values
About 2,000 (0.54%) of roughly 370,000 compounds were called active. For the sample, actives were picked, then their nearest neighbours and some compounds at random.
test readout: inhibition (%)

COc1ccc(C(C)=O)cc1CSc1nc2nc(C)cc(C)n2n1; -9.62
O=C1Nc2ccc([N+](=O)[O-])cc2C1=Nc1cccc(CO)c1; 58.7
Cc1cc(C)nc(-n2ncc3c2CC(c2ccc(C(C)C)cc2)CC3=O)n1 (stereo not given); 2.76
CC(NC(=O)CN1CCN(Cc2ccc(Cl)cc2)C1=O)c1ccc2c(c1)OCCO2 (stereo not given); 11.5
COc1ccc2c(c1)c(=Cc1ccc(N(C)C)cc1)c1cc(-c3ccccc3)[n+](C)n12; 55.6
COc1cc(C(=O)N2CCN(C/C=C/c3ccccc3)CC2)cc(OC)c1C; 11.4
CCn1c(C)nc2cc(C(=O)NNS(=O)(=O)c3ccc(C)cc3C)ccc21; -9.65
COC(=O)C[C@H]1C[C@@H]2c3cc(NC(=O)Nc4ccccc4)ccc3O[C@@H]2[C@@H](CO)O1; -2.2
COc1ccc(C(=O)/C=C/c2ccc(-c3ccccc3)cc2)cc1CSCC(=O)O; 29.8
O=S1(=O)CC(N2CCN(CCO)CC2)CN1Cc1cn(Cc2ccc(Cl)cc2)nn1 (stereo not given); -2.07

====

Tested on: Crimean-Congo hemorrhagic fever virus L polyprotein viral ovarian tumor (vOTU) protease domain
assay summary: CCHFV vOTU protease inhibitors, primary screen, biochemical, Pep-AMC substrate, fluorescence (AID 651958); further: 0% = vehicle wells with enzyme and 100% = no enzyme wells
measurement setup: at 11.5 µM, hits give high values
Out of some 370,000 compounds screened, about 2,000 (0.54%) were called active. The sample as a whole holds a higher share of actives than the screen did.
Measured inhibition of individual entries
test readout: inhibition

N[C@@H](Cc1ccccc1)C(=O)N1CCOCC1; -2.24% (inactive)
Cc1ccc(S(=O)(=O)NC(C(=O)N2CCOCCOCCOCCOCC2)c2ccccc2)cc1 (stereo not given); -5.21% (inactive)
Cc1oc2c(F)c(F)c(F)c(F)c2c1S(=O)(=O)Nc1cccc(C(F)(F)F)c1; 43.8% (active)
COc1ccc(C(=O)N2CCCC(C(=O)c3ccccc3OC)C2)cc1OC (stereo not given); 4.28% (inactive)
CCc1ccc2c(c1)C1(NN=C(c3ccccc3)S1)C(=O)N2 (stereo not given); 1.82% (inactive)
CC1CCCN(CC(O)COc2ccc3c(c2)OCO3)C1 (stereo not given); 9.88% (inactive)
COc1ccc(S(=O)(=O)N(C)C[C@H]2OCc3cnnn3CCCC(=O)N([C@H](C)CO)C[C@H]2C)cc1; -4.66% (inactive)
CC1(Cc2cccc(C#N)c2)C(=O)Nc2ccc(-c3cccc(C(F)(F)F)c3)cc21 (stereo not given); 21.6% (inactive)
Cc1cccc(C)c1NC(=O)CNC(=O)c1c(C)nn(-c2ccccc2)c1C; 33% (active)
CCC(C)(C(=O)NC1CCCC1)N(C(=O)CNC(C)=O)c1ccc(C)cc1 (stereo not given); 7.89% (inactive)

====

Test system: Crimean-Congo hemorrhagic fever virus L polyprotein viral ovarian tumor (vOTU) protease domain
assay summary: CCHFV vOTU protease inhibitors, primary screen, biochemical, Pep-AMC substrate, fluorescence (AID 651958); further: 0% = vehicle wells with enzyme and 100% = no enzyme wells
measurement setup: at 11.5 µM
Screen size: about 370,000 compounds; about 2,000 (0.54%) were called active. Cut-off read from the data, not from the text of the source: active = inhibition above about 30%; inactive = the rest. This is one part of a sample in which actives are shown more often than they occur.
Labels: T (active), F (inactive)

CCOC(=O)c1cc2c(=O)[nH]c(C(Cl)(Cl)Cl)nc2o1; F
Cc1nn(CCCC(=O)NCc2ccccc2Cl)c(=O)c2nccn12; F
CCc1ccc(/C=N/NC(=O)c2ccc(OC3CCCC3)cc2)s1; F
O=C(OCC(=O)c1cccs1)c1ccc([N+](=O)[O-])o1; T
CCn1c(SCC(=O)NC2=NCCS2)nnc1C(C)NC(=O)c1ccccc1F (stereo unspecified); F
Cc1ccc(-n2c(SCC(=O)Nc3cccc4ccccc34)nnc2-c2ccco2)cc1; F
CC(Sc1nncn1C)C(=O)Nc1ccccc1-c1ccccc1 (stereo unspecified); F
O=C(COC(=O)c1ccc([N+](=O)[O-])o1)NC12CC3CC(CC(C3)C1)C2; F
CCOC1=C2CN(S(=O)(=O)c3ccc(C)cc3)[C@H](c3cccs3)C[C@H]2[C@H]2C(=O)N(c3ccccc3)C(=O)[C@H]2C1; F
CCCc1ccc(C(O)c2ncc(-c3cccc(OC)c3)[nH]2)cc1 (stereo unspecified); F
COc1ccc(C(=O)COC(=O)c2ccc([N+](=O)[O-])s2)cc1OC; T
CCCNC(=S)N1CCC(NC(=O)C23CC4CC(CC(C4)C2)C3)CC1; F
COCCNC(=O)C1C(=O)Nc2ccccc2C(=O)N1c1ccc2c(c1)OCCO2 (stereo unspecified); F
O=C(O)c1cc(S(=O)(=O)Nc2ccc3cn[nH]c3c2)ccc1Br; T
Cc1ccc(Sc2cc(N3CCOCC3)nc(-c3ccccc3)n2)cc1; F
COC(=O)c1cc(C(=O)OCC(=O)Nc2cc(C)on2)cc([N+](=O)[O-])c1; F
O=S(=O)(Nc1ccc2[nH]ncc2c1)c1ccccc1Cl; F
CN(Cc1c(F)cccc1Cl)C(=O)COC(=O)Cn1cnc2ccccc2c1=O; F
O=C(O)c1ccc(NS(=O)(=O)c2ccc3c(c2)C(=O)c2cc(S(=O)(=O)Nc4ccc(C(=O)O)cc4)ccc2-3)cc1; F
COc1ccc(CN(Cc2ccco2)S(=O)(=O)c2ccc(S(=O)(=O)N3CCCC3)cc2)cc1; F
COc1ccccc1CNC(=O)COC(=O)c1cccs1; F
